assay: activity coefficient (dimensionless); of the first substance listed, at infinite dilution; xn = mol fraction of the nth substance listed; conditions: 303.35 K; Liquid; inverse gas chromatography; x1 = 0
Readout kind: activity coefficient

>>> value_reported("CCC[N+](=O)[O-] [1-nitropropane] + CCCCn1cc[n+](C)c1.F[B-](F)(F)F")
1.54
>>> value_reported("Cc1cccc(C)c1 [1,3-dimethylbenzene] + CCCCn1cc[n+](C)c1.F[B-](F)(F)F")
7.81
>>> value_reported("CCOCC [diethyl ether] + CCCCn1cc[n+](C)c1.F[B-](F)(F)F")
10.2
>>> value_reported("CC1CCCC1 [methylcyclopentane] + CCCCn1cc[n+](C)c1.F[B-](F)(F)F")
62.2
>>> value_reported("CCCO [propan-1-ol] + CCCCn1cc[n+](C)c1.F[B-](F)(F)F")
3.12
>>> value_reported("C#CCCCCC [1-heptyne] + CCCCn1cc[n+](C)c1.F[B-](F)(F)F")
13.2
>>> value_reported("CCN(CC)CC [triethylamine] + CCCCn1cc[n+](C)c1.F[B-](F)(F)F")
9.44
>>> value_reported("CC1CCCCC1 [methylcyclohexane] + CCCCn1cc[n+](C)c1.F[B-](F)(F)F")
98.3
>>> value_reported("CCc1ccccc1 [ethylbenzene] + CCCCn1cc[n+](C)c1.F[B-](F)(F)F")
7.25
>>> value_reported("c1ccsc1 [thiophene] + CCCCn1cc[n+](C)c1.F[B-](F)(F)F")
1.56
>>> value_reported("C1CCCCC1 [cyclohexane] + CCCCn1cc[n+](C)c1.F[B-](F)(F)F")
62.5
>>> value_reported("c1ccncc1 [pyridine] + CCCCn1cc[n+](C)c1.F[B-](F)(F)F")
1
>>> value_reported("CC#N [acetonitrile] + CCCCn1cc[n+](C)c1.F[B-](F)(F)F")
0.65
>>> value_reported("CCC(C)CC [3-methylpentane] + CCCCn1cc[n+](C)c1.F[B-](F)(F)F")
126
>>> value_reported("ClCCl [dichloromethane] + CCCCn1cc[n+](C)c1.F[B-](F)(F)F")
0.69
>>> value_reported("Cc1ccc(C)cc1 [1,4-dimethylbenzene] + CCCCn1cc[n+](C)c1.F[B-](F)(F)F")
7.36
>>> value_reported("CO [methanol] + CCCCn1cc[n+](C)c1.F[B-](F)(F)F")
1.22
>>> value_reported("CCC=O [propanal] + CCCCn1cc[n+](C)c1.F[B-](F)(F)F")
1.38
>>> value_reported("CCCCCCCCC [nonane] + CCCCn1cc[n+](C)c1.F[B-](F)(F)F")
956
>>> value_reported("ClC(Cl)Cl [trichloromethane] + CCCCn1cc[n+](C)c1.F[B-](F)(F)F")
1.04
>>> value_reported("CCO [ethanol] + CCCCn1cc[n+](C)c1.F[B-](F)(F)F")
2.15
>>> value_reported("C1CCCCCC1 [cycloheptane] + CCCCn1cc[n+](C)c1.F[B-](F)(F)F")
78.7
>>> value_reported("CC(C)CO [2-methyl-1-propanol] + CCCCn1cc[n+](C)c1.F[B-](F)(F)F")
4.17
>>> value_reported("CCCCCCC [heptane] + CCCCn1cc[n+](C)c1.F[B-](F)(F)F")
259
>>> value_reported("OCC(F)(F)F [2,2,2-trifluoroethanol] + CCCCn1cc[n+](C)c1.F[B-](F)(F)F")
0.36
>>> value_reported("CCCC=O [butanal] + CCCCn1cc[n+](C)c1.F[B-](F)(F)F")
2.19
>>> value_reported("CCCC(C)=O [pentan-2-one] + CCCCn1cc[n+](C)c1.F[B-](F)(F)F")
2.6
>>> value_reported("CCCCO [butan-1-ol] + CCCCn1cc[n+](C)c1.F[B-](F)(F)F")
4.74
>>> value_reported("Cc1ccccc1 [toluene] + CCCCn1cc[n+](C)c1.F[B-](F)(F)F")
4.37
>>> value_reported("C[N+](=O)[O-] [nitromethane] + CCCCn1cc[n+](C)c1.F[B-](F)(F)F")
0.59
>>> value_reported("C=CCCCC [hex-1-ene] + CCCCn1cc[n+](C)c1.F[B-](F)(F)F")
48
>>> value_reported("CC(C)OC(C)C [diisopropyl ether] + CCCCn1cc[n+](C)c1.F[B-](F)(F)F")
30.7
>>> value_reported("Cc1ccccc1C [1,2-dimethylbenzene] + CCCCn1cc[n+](C)c1.F[B-](F)(F)F")
6.53
>>> value_reported("C=O [methanal] + CCCCn1cc[n+](C)c1.F[B-](F)(F)F")
0.22
>>> value_reported("CCC(C)=O [butanone] + CCCCn1cc[n+](C)c1.F[B-](F)(F)F")
1.5
>>> value_reported("CCC(=O)CC [pentan-3-one] + CCCCn1cc[n+](C)c1.F[B-](F)(F)F")
2.63
>>> value_reported("C#CCCCC [1-hexyne] + CCCCn1cc[n+](C)c1.F[B-](F)(F)F")
8.29
>>> value_reported("CCCCCCCC [octane] + CCCCn1cc[n+](C)c1.F[B-](F)(F)F")
425

Every entry's value here was drawn from the NIST ThermoML archive (doi:10.1021/je800658v).
